Test: label from the status in PepcDB records
readout-name: protein production

- sequence-string: "MVKGDITTAFIAEEYPDGFQGAVLDEPTLRRVAAAAAAMNRVAEIRRTRISGTMNNHERHVGVDWVVALQGESYHVSIAADREGSTVSFSDGSSLRVTSDWTPGQPLEHHHHHH"
  observed-measurement: "failed"
- sequence-string: "MLNPSLDIISLMAYLTSSSLVGLKLLNFSINLFISSSFLTFLKSLKCSLILPISMPANSGILFTAVSFMLARSLAMSSFGVFSSIINLFTTIHLPYLAVKLI"
  observed-measurement: "failed"
- sequence-string: "MTNKAIKATNEELQQVYNDIPKAYDRANRFISFNQDVKWRADLVKTILKYCKRPKLILDVASGKGELSYTFKKIYKDNSNYEIILSDYAENMLKMALIKDDKVLCSFDALPFREKTFDIVMSSFALHASDNIEDVIREITRVSRKIVGFIAMGKPDSWVRRIYLSIYLKYIMPYIAVLGGAKARDFKYIYYIYERVPTNSQHKRIFEKYIDIKVYEERALNLFYFVVGFPKE"
  observed-measurement: "failed"
- sequence-string: "MARGELPRASISDTIPMTMASIDAGSVRFTARADKRHLNPLGGVHGGFAATVLDSVTGCAIHSILEAGVGYGTVDLSVKRVKAVPEDTPLVAEGRVLHVPCAIGSQRADLMLAPPRLGRDRRCPAGHAPAGAARAACAPQGRLTPMRRPLNAAPAARRCGRTGTDRSRAPGRACAAPWSSAC"
  observed-measurement: "failed"
- sequence-string: "MPQPTVLLLARADLSPVGTEFTTGPIDAHDPFDSGRRTAFVDEQGIAAGIVEFGTALSVEAYPYTEMLVMHRGSVTLTSGTDSVTLSTGESAVIGRGTQVRIDAQPESLWAFCASTQASGPDKSGITALDRLALLTPSSPPDPSIMISPLPQCRSNNLFEDTASTLRIGVWDSTPYERISRPHKIHELMNLIEGRVVLSLENGSSLTVNTGDTVFVAQGAPCKWTSTGYVRKFYAVT"
  observed-measurement: "not failed"

Notebook: "MKSRTSELAAGIFVIIFGVALFFLAMKVSGLAGTNLSDPYTMTAQFDNVNGLKPRAKVTMSGVTIGRVDAITLDPVTRLATVTFDLDGKLTTFNAKQLKTVEQNALEELHYSSDYKSAEPAKQKVMEQQLIDNMKSITSIDEDAYIMVSTNGLLGEKYLKIVPGGGLNYLKRGDAITNTQGTMDLEDLISKFITGGAGKSSDNSTGTAAQSSSSEDKEPSFTELEHHHHHH" , protein production read as failed

Notebook: "MRGEGRRIGAMSETPEIPGSGYRTGEALLRAGDIAGAITAFRGHLAASPDDALGWFALGSALFFAQRWEETRAAYARAAAIDRAYTLGGLLRPGDVETALDPAPFLGQLPEMSMIIPPAHSGPLAVVGCDSAYFLDFGAALALSMDKAAPGWGLHLHLIAPTTPALDLLERLIGGLRAITLSFSLEHLPPALRAPEAQRTYLACLRFMRLPAILDEQQARAGRVPVVVLDADSLMCKPLLGPDDWRPPGPEGGWRAGWDVALKDSGLFPLGPLWRYSASCVGLAPTDEARAFAAHVATLLARQALTVNGLGWMIDQFALAVAIAARQTQSPAFRLGDWPDRLYRLYENPPDAALWSFCSQSKYDDRLYRDMVRLLLAEMG" , protein production read as failed

Notebook: "GQRVLFGSGEAAQNLAAEISRLDAKNVMVVAGDFELPMARQVAADIDVKVWHSNVVMHVPIETAEEARSVAKENDIDVVVCVGGGSTTGLAKAIAMTTALPIIAVPTTYAGSEATNVWGLTEAARKTTGVDNKVLPVTVIYDSALTMSLP" , protein production read as not failed
